- Tgt: Amine oxidase [flavin-containing] A (Rattus norvegicus)
- Sequence (P21396 whole entry): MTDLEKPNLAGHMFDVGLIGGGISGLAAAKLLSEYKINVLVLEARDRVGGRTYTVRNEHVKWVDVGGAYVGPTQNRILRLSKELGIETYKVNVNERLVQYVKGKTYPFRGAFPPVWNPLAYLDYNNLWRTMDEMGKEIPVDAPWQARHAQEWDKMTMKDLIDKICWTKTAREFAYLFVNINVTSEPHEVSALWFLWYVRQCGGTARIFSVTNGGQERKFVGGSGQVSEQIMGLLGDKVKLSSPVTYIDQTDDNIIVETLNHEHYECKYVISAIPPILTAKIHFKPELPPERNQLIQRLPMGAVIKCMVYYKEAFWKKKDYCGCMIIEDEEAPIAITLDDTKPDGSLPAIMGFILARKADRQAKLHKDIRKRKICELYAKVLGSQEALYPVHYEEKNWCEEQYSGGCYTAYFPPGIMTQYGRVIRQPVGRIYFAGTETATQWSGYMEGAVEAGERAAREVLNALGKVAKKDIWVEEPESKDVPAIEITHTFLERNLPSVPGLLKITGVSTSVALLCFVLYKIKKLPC
pIC50: −log10 of the molar value.
Recorded Endpoint: pIC50

Record Smiles | Recorded Endpoint | Observed
N#CCCn1nc(-c2ccc(-c3ccccc3)cc2)oc1=S | pIC50 | 4.65

----------
- Tgt: Amine oxidase [flavin-containing] B (Rattus norvegicus, UniProt P19643)
- Sequence (P19643 whole entry): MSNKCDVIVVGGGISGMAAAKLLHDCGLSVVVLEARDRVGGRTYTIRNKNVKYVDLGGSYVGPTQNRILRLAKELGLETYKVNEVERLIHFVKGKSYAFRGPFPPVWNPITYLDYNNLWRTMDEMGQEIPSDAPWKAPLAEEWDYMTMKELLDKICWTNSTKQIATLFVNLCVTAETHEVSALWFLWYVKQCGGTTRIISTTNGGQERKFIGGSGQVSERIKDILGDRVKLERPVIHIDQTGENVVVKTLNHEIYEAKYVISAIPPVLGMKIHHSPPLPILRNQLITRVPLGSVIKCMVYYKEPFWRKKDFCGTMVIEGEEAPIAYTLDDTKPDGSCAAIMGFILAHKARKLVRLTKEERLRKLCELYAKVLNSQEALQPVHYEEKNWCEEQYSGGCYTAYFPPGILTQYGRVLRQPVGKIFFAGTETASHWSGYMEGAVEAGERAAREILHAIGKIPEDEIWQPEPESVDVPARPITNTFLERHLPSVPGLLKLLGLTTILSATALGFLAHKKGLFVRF
- Test Name: Competitive inhibition of Sprague-Dawley rat brain mitochondrial MAO-B using PEA as substrate by Lineweaver-Burk plot analysis
pKi: −log10 of the molar value.

Record Smiles | pKi
N#CCCn1nc(-c2ccc(OCc3ccccc3)cc2)oc1=O | 6.66

----------
- Tgt: Amine oxidase [flavin-containing] B (Rattus norvegicus, UniProt P19643)
- Sequence (P19643 whole entry): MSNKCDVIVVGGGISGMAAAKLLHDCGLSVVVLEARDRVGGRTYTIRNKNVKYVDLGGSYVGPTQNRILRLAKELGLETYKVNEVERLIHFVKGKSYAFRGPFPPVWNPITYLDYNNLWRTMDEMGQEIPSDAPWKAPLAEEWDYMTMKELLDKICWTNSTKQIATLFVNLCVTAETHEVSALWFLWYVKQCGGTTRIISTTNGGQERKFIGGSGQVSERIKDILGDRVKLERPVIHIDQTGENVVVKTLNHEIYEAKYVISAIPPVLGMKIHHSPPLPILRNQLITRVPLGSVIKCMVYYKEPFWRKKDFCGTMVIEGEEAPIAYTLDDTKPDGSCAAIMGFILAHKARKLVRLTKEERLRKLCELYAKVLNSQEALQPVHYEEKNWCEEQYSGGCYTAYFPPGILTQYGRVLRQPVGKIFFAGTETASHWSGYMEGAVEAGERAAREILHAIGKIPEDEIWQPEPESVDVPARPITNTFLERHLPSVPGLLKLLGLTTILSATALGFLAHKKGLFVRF
- Test Name: Inhibition of Sprague-Dawley rat brain mitochondrial MAO-B using [14C]-PEA as substrate preincubated for 60 mins by radiochemical method
pIC50: −log10 of the molar value.

Record Smiles | pIC50
O=c1oc(-c2ccc(OCc3ccccc3)cc2)nn1CCO | 8.33

----------
- Tgt: Amine oxidase [flavin-containing] B (Rattus norvegicus)
- Test Name: Inhibition of Sprague-Dawley rat brain mitochondrial MAO-B using [14C]-PEA as substrate preincubated for 120 mins by radiochemical method
pIC50: −log10 of the molar value.

Record Smiles | pIC50
O=c1oc(-c2ccc(OCc3ccccc3)cc2)nn1CCO | 8.33

----------
- Tgt: Amine oxidase [flavin-containing] B (Rattus norvegicus)
- Test Name: Inhibition of Sprague-Dawley rat brain mitochondrial MAO-B using PEA as substrate preincubated for 60 mins
- Condition Parameters: read-out: Kieq
pKi: −log10 of the molar value.
Recorded Endpoint: pKi

Record Smiles | Observed
N#CCCn1nc(-c2ccc(OCc3ccccc3)cc2)oc1=O | 9.15

----------
- Species: Rattus norvegicus
- Test Name: Selectivity ratio of IC50 for Sprague-Dawley rat brain mitochondrial MAO-A to IC50 for Sprague-Dawley rat brain mitochondrial MAO-B
Recorded Endpoint: Ratio IC50

Record Smiles | Recorded Endpoint | Value Prefix | Observed
N#CCCn1nc(-c2ccc(-c3ccccc3)cc2)oc1=O | Ratio IC50 | = | 139
N#CCCn1nc(-c2ccc(OCc3ccccc3)cc2)oc1=O | Ratio IC50 | > | 71400
N#CCCn1nc(-c2ccc(OCc3ccccc3)cc2)oc1=S | Ratio IC50 | > | 3200
N#CCCn1nc(-c2ccc(-c3ccccc3)cc2)oc1=S | Ratio IC50 | = | 304
O=c1oc(-c2ccc(OCc3ccccc3)cc2)nn1CCO | Ratio IC50 | > | 30400

----------
- Tgt: Amine oxidase [flavin-containing] B (Rattus norvegicus, UniProt P19643)
- Sequence (P19643 whole entry): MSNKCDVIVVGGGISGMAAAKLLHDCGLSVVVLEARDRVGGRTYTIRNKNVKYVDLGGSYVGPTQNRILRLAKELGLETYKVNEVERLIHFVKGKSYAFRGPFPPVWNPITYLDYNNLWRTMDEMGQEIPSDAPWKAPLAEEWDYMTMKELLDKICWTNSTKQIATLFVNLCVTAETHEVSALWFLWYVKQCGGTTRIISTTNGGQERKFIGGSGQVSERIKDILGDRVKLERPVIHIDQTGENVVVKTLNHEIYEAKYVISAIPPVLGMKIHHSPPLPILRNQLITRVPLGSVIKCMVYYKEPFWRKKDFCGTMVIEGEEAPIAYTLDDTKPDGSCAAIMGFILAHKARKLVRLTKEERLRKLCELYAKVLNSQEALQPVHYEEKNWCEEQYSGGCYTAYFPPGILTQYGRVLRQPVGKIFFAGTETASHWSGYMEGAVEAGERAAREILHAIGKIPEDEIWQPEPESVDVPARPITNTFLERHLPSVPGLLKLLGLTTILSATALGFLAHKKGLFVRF
- Test Name: Inhibition of Sprague-Dawley rat brain mitochondrial MAO-B using [14C]-PEA as substrate by radioassay method
pIC50: −log10 of the molar value.

Record Smiles | Tgt | pIC50
N#CCCn1nc(-c2ccc(-c3ccccc3)cc2)oc1=O | Amine oxidase [flavin-containing] B (Rattus norvegicus, UniProt P19643) | 7.25
N#CCCn1nc(-c2ccc(-c3ccccc3)cc2)oc1=S | Amine oxidase [flavin-containing] B (Rattus norvegicus, UniProt P19643) | 7.13

src = ChEMBL document CHEMBL4715888
